Assay: Toxicity liver stage against HepG2, at 10uM
Assay type: cell-based
Set-up: test concentration 10 uM, cell line HepG2-A16-CD81EGFP
Conditions: human, HepG2-A16-CD81EGFP cells; read-out: INHIBITION
Quantity kind: cytotoxicity at 10 µM (%)
Write it as a number; the unit % goes unstated.

{"columns": ["Compound", "cytotoxicity at 10 µM (%)"],
 "data": [
  ["CCN(Cc1nc2c(cnn2C)c(=O)[nH]1)c1cccc(C)c1C", 1.66],
  ["CCN1CC[C@]2(CN(C(=O)C3CCOCC3)C[C@H]2c2ccccc2)C1=O", 8.58],
  ["Cc1cc(CNC(=O)c2cc(C(C)C)n(C)n2)ccc1S(C)(=O)=O", -3.11],
  ["O=C1CC(c2cccc(O)c2)c2c(c(C(=O)O)cn2-c2ccccc2)N1 (stereo unspecified)", 1],
  ["COc1ccc(Oc2cccnc2)cc1CN1CCCC1", 2.67]
]}

What the record says about CCNC(=O)C1CCN(c2cc(CC)nc3ccnn23)C1 (stereo unspecified) : cytotoxicity at 10 µM is -8.24

What the record says about CCC(=O)N1CCC2(CC1)COCCN2Cc1ccc(F)cc1 : cytotoxicity at 10 µM is -76.5

What the record says about CC(C(=O)NC1CC1)n1nc(-c2cccs2)cc(N)c1=O (stereo unspecified) : cytotoxicity at 10 µM is 10.9

====

Assay: Toxicity liver stage against HepG2, at 10uM
Format: cell-based
Parameters: test concentration 10 uM, cell line HepG2-A16-CD81EGFP
Conditions: human, HepG2-A16-CD81EGFP cells; read-out: INHIBITION
// values below are reported cytotoxicity at 10 µM
Write it as a number; the unit % goes unstated.

See these solved cases before continuing.
{"columns": ["Compound", "Unit info", "cytotoxicity at 10 µM"],
 "data": [
  ["COc1ccc(SC(C)C(=O)N2CCC(C(N)=O)CC2)cc1 (stereo unspecified)", "%", 2.28],
  ["O=C(COCC(F)(F)F)NS(=O)(=O)c1ccc2c(c1)OCCCO2", "%", -6.8],
  ["COc1ncccc1C(=O)NCCn1nc(C)ccc1=O", "%", -7.69],
  ["Cc1cc2cc(CNC3CCN(CC(=O)N(C)C)CC3)oc2cc1C", "%", -5.95]
]}

What the record says about Cc1nnc([C@H]2C[C@H]3CN(C(=O)Cc4ccc(F)cc4)CC[C@@H]3O2)o1 : cytotoxicity at 10 µM is -104

What the record says about CCOc1cccc(CN(Cc2cnn(C)c2)CC(C)C)c1O : cytotoxicity at 10 µM is -7

What the record says about CS(=O)(=O)CCNCc1ccc(OCc2cscn2)cc1 : cytotoxicity at 10 µM is -136

What the record says about N#Cc1c(F)cccc1Nc1cnn(CC(=O)N2CCOCC2)c1 : cytotoxicity at 10 µM is 2.2

What the record says about Cc1ccc(N2CCC3(CCN(C(=O)N(C)C)CC3)CC2)nn1 : cytotoxicity at 10 µM is 5.73

What the record says about CC(=O)c1c(C)nn(CC(=O)Nc2ccc(Br)cc2)c1C : cytotoxicity at 10 µM is -9.87

What the record says about CNC(=O)CS(=O)(=O)Cc1coc(-c2ccc(F)cc2)n1 : cytotoxicity at 10 µM is -9.44

====

Experiment: Toxicity liver stage against HepG2, at 10uM
Format: cell-based
Parameters: test concentration 10 uM, cell line HepG2-A16-CD81EGFP
Conditions: human, HepG2-A16-CD81EGFP cells; read-out: INHIBITION
Quantity kind: cytotoxicity at 10 µM (%)
Write it as a number; the unit % goes unstated.

See these solved cases before continuing.
{"columns": ["Compound", "cytotoxicity at 10 µM (%)"],
 "data": [
  ["CCCN(c1ccccc1C(=O)O)S(=O)(=O)c1ccc2ccccc2c1", -2.32],
  ["Cc1cnn(CC2CN(CCc3ccncc3)CCO2)c1 (stereo unspecified)", -13.6]
]}

What the record says about Cc1nc(-c2ccco2)ccc1C(=O)NCC(=O)N1CCCCC1 : cytotoxicity at 10 µM is -7.76

What the record says about CCCN(Cc1nccn1C)C(=O)c1cc(C)nc(C)n1 : cytotoxicity at 10 µM is 2.37

What the record says about CCc1cc(N2CCSCC2)n2nc(C)c(C)c2n1 : cytotoxicity at 10 µM is -0.854

What the record says about COC(=O)C(C)(C)NC(=O)c1cc2sc(N(C)C)nc2s1 : cytotoxicity at 10 µM is -20.5

====

Experiment: Toxicity liver stage against HepG2, at 10uM
Assay type: cell-based
Parameters: test concentration 10 uM, cell line HepG2-A16-CD81EGFP
Details: human, HepG2-A16-CD81EGFP cells; read-out: INHIBITION
// values below are reported cytotoxicity at 10 µM
Write it as a number; the unit % goes unstated.

See these solved cases before continuing.
{"columns": ["Molecule", "Unit info", "cytotoxicity at 10 µM"],
 "data": [
  ["CCOC(=O)C1CCN(C(=O)CN2CCCC2c2cc(C)no2)CC1 (stereo unspecified)", "%", 8.32],
  ["NC(=O)CN1CCN(C(=O)c2cc(Cl)cc3cccnc23)CC1", "%", -9.19],
  ["Fc1cnc(N2CCCn3c(nnc3Cn3ccnc3)C2)nc1", "%", -140],
  ["CC1=N[C@@]2(CC[C@@H]3CN(Cc4cccc(Cl)c4)C[C@@H]32)C(=O)N1CC1CC1", "%", 0.758]
]}

What the record says about O=S(=O)(CCCn1cncn1)Cc1cccc(F)c1 : cytotoxicity at 10 µM is 2.31

What the record says about COC[C@H]1CCC[C@H]1Nc1ncnc2c1CCNCC2 : cytotoxicity at 10 µM is -11.2

====

Experiment: Toxicity liver stage against HepG2, at 10uM
Format: cell-based
Design: test concentration 10 uM, cell line HepG2-A16-CD81EGFP
Conditions: human, HepG2-A16-CD81EGFP cells; read-out: INHIBITION
Quantity kind: cytotoxicity at 10 µM (%)
Write it as a number; the unit % goes unstated.

See these solved cases before continuing.
{"columns": ["Compound", "Unit info", "cytotoxicity at 10 µM"],
 "data": [
  ["CC(C)(C)n1ncc(C(=O)NCCCC(N)=O)c1C(F)(F)F", "%", 8.85],
  ["Cc1ccnn1CCC(=O)N1CCCC1c1cc2cccnc2[nH]1 (configuration not stated)", "%", 9.17],
  ["C=C(C)CN(CC)C(=O)c1cc(F)ccc1NS(C)(=O)=O", "%", -2.12],
  ["CC(C)c1cc(NC(=O)CN2CCCC(Cn3cncn3)C2)on1 (configuration not stated)", "%", 14],
  ["Cn1cc(C2CCCN2CCCn2c(=O)oc3ccccc32)cn1 (configuration not stated)", "%", 5.63],
  ["c1ccc(C2CCN(c3cncc(-n4cccn4)n3)CC2)cc1", "%", -15.3]
]}

What the record says about Clc1cc(N2CCN3CCCCC3C2)nc2[nH]ccc12 (configuration not stated) : cytotoxicity at 10 µM is -9.74

What the record says about CCN(Cc1ccc(C#N)cc1F)C(=O)C(C)(C)C : cytotoxicity at 10 µM is 5.73

What the record says about CCCC(=O)n1ccn(S(=O)(=O)c2ccc(C)cc2)c1=O : cytotoxicity at 10 µM is 8.08

What the record says about Cc1scc(C(=O)N2CCC3(CC(=O)NC3=O)C2)c1-c1ccccc1 (configuration not stated) : cytotoxicity at 10 µM is -17.5

What the record says about CC(C)Oc1ccc(C(=O)Nc2nncs2)cn1 : cytotoxicity at 10 µM is -7.94

What the record says about NC(=O)CN1CCCC(c2cncc(Nc3ncccn3)n2)C1 (configuration not stated) : cytotoxicity at 10 µM is -2.61

====

// values below are reported cytotoxicity at 10 µM
Assay: Toxicity liver stage against HepG2, at 10uM
Assay type: cell-based
Design: test concentration 10 uM, cell line HepG2-A16-CD81EGFP
Details: human, HepG2-A16-CD81EGFP cells; read-out: INHIBITION
Write it as a number; the unit % goes unstated.

See these solved cases before continuing.
{"columns": ["Molecule", "cytotoxicity at 10 µM [%]"],
 "data": [
  ["COCC1CCCN(C(=O)c2cc(Cn3ccc4ccccc43)[nH]n2)C1 (stereo unspecified)", -11.5],
  ["Fc1ccc(C2(NCc3ccccc3)CCOCC2)cc1", -9.91],
  ["O=C(NC(CO)CO)c1coc(COc2cccc(F)c2)n1", 12.5],
  ["CCC(=O)N1CCC2(CCN(Cc3cccc(F)c3)CC2)CC1", -4.82],
  ["CCc1ccsc1C(=O)N1CCN(CC(O)CC)CC1 (stereo unspecified)", -4.25]
]}

What the record says about Cc1cccc(C)c1CNC1(CCO)CCOCC1 : cytotoxicity at 10 µM is 1.93

What the record says about CCc1nc(CN2CCCN(C(=O)c3cccn3C)CC2)cs1 : cytotoxicity at 10 µM is 3.41

What the record says about CCc1nc(C2NC3(CCCC3)C(=O)N2CC2CC2)cs1 (stereo unspecified) : cytotoxicity at 10 µM is -1.09

What the record says about CC1CCCN(S(=O)(=O)N2CCOC3(CCCC3)C2)C1 (stereo unspecified) : cytotoxicity at 10 µM is -1.57

What the record says about CCCc1nnc(NC(=O)Cc2c(C)nc(C)[nH]c2=O)s1 : cytotoxicity at 10 µM is -10.7

What the record says about O=S(=O)(C1CC1)N1CCc2ncnc(-c3ccc(F)cc3)c2CC1 : cytotoxicity at 10 µM is -66.5

What the record says about CC[C@H](C)[C@H](NC(=O)c1ccc(-n2cnnn2)cc1)C(=O)OC : cytotoxicity at 10 µM is 9.09

What the record says about CN(Cc1ccc(OCC(=O)N2CCOCC2)cc1)S(C)(=O)=O : cytotoxicity at 10 µM is 4.64

What the record says about CC(C)c1nnc2n1CC(CNc1cnc3ccccc3n1)CC2 (stereo unspecified) : cytotoxicity at 10 µM is -37.1

This collection of values is drawn from ChEMBL document CHEMBL4513216.
